Entries and their Percent Effect values follow.
System: Trypanosoma cruzi
TEST SUMMARY: Trypanosoma cruzi phosphomannomutase and mannose-1-phosphate guanylyltransferase assay
Type: functional
Parameters: scale not given: direction of the effect not stated beside the values
ASSAY SETUP: 10 µM
All answers are understood in %, so give the number only.

# MOLECULE, Percent Effect [%]
records = [
    ("Cc1cc(C)c2nc(CN3CCCC(c4cc[nH]n4)C3)cc(O)c2c1 (stereo unspecified)", -3.28),
    ("CC(C)NC(=O)Nc1ccc(CNCc2cccc(C#N)c2)cc1", 0.933),
    ("CN1N=C(C(=O)N(Cc2ccco2)C2CC2)CCC1=O", 1.46),
    ("Cc1cnn(CC2CN(CC(=O)Nc3nnc(C)s3)CCO2)c1 (stereo unspecified)", 7.71),
    ("O=C(NCCc1ccccc1)C1CCCN(c2ccc3nncn3n2)C1 (stereo unspecified)", -8.05),
]

Given item Cc1cccc(OCCC(=O)N2CCCN(C(N)=O)CC2)c1C , the value recorded as its Percent Effect is -9.54

Given item Cc1nc(N)sc1C(=O)N1CCCC(c2nccn2CCCN(C)C)C1 (stereo unspecified) , the value recorded as its Percent Effect is 7.47

Given item CCCC(Nc1c(C#N)c(=O)n(C)c(=O)n1C)c1ccc(F)cc1F (stereo unspecified) , the value recorded as its Percent Effect is 5.19

Given item CNC(=O)C1CCN(C(=O)c2cccn2Cc2cccs2)CC1 , the value recorded as its Percent Effect is -5.99

Given item CN(C)C(=O)C1CN(Cc2ccccc2)CCN(S(C)(=O)=O)C1 (stereo unspecified) , the value recorded as its Percent Effect is 4.35

Given item CS(=O)(=O)c1ccc(CNC(=O)N2CCC(C(N)=O)C2)cc1 (stereo unspecified) , the value recorded as its Percent Effect is 8.78

Given item C[C@@H]1CN(C2(C(=O)N3CCCCCC3)Cc3ccccc3C2)C[C@H](C)O1 , the value recorded as its Percent Effect is 6.51

Given item CC(=O)N1CCn2c(C(=O)N(C)C)cnc2C1 , the value recorded as its Percent Effect is -1.77

Given item CCn1nc(C)c2ncnc(NCCCN3CCOCC3)c21 , the value recorded as its Percent Effect is 0.786

Given item COc1ccc(C(CO)NC(=O)Nc2cccc(C#N)c2)cc1 (stereo unspecified) , the value recorded as its Percent Effect is 3.86

Given item Fc1ccccc1CN1C[C@@H](OCc2ccncc2)[C@H]2OCCC[C@H]21 , the value recorded as its Percent Effect is 4.62
